experiment: Single dose pharmacokinetic study after oral administration, with and without ABT pre-dosing; type: in vivo, female Balb/c mice; settings: female, Balb/c, mouse, in vivo, 0.5 h; PO 200 mg/kg + 100 mg/kg ABT; read-out: Drug plasma concentration, individual mice
This section presents compounds with their documented concentration at 0.5 h values.

[2H]c1c(C([2H])([2H])[2H])c([2H])n2c(C(=O)NCc3ccc(C(F)(F)F)cc3)c(C)nc2c1[2H] [ND-012101]; 23300 ng/mL

We now examine a further compound.
Lab note: measured concentration at 0.5 h of Cc1ccc2nc(C)c(C(=O)NCc3ccc(C(F)(F)F)cc3)n2c1 [ND-011176] was 19600 ng/mL

----------
experiment: Single dose pharmacokinetic study after oral administration, with and without ABT pre-dosing; type: in vivo, female Balb/c mice; conditions: female, Balb/c, mouse, in vivo, po, 200 mg/kg, 4 h; PO 200 mg/kg, no ABT; read-out: Drug plasma concentration, individual mice
Quantity Kind: concentration at 4 h (ng/mL)
Express the result in ng/mL but write the number alone.

"Cc1ccc2nc(C)c(C(=O)NCc3ccc(C(F)(F)F)cc3)n2c1" has a reported concentration at 4 h of 861

----------
Listed below: concentration at 4 h values for each entry.
experiment: Single dose pharmacokinetic study after oral administration, with and without ABT pre-dosing; assay type: in vivo, female Balb/c mice; conditions: female, Balb/c, mouse, in vivo, 4 h; PO 200 mg/kg + 100 mg/kg ABT; read-out: Drug plasma concentration, Average
Numbers only; they are read as ng/mL.

For this compound ( [2H]c1c(C([2H])([2H])[2H])c([2H])n2c(C(=O)NCc3ccc(C(F)(F)F)cc3)c(C)nc2c1[2H] [ND-012101] ), measured concentration at 4 h is 43500

// concentration at 4 h value for Cc1ccc2nc(C)c(C(=O)NCc3ccc(C(F)(F)F)cc3)n2c1 [ND-011176] : 44800

----------
test: Single dose pharmacokinetic study after oral administration, with and without ABT pre-dosing; assay type: in vivo, female Balb/c mice; details: female, Balb/c, mouse, in vivo, po, 200 mg/kg, 0.5 h; PO 200 mg/kg, no ABT; read-out: Drug plasma concentration, Average
Quantity Kind: concentration at 0.5 h (ng/mL)
The reply should be a number in ng/mL, with the unit left off.

[2H]c1c(C([2H])([2H])[2H])c([2H])n2c(C(=O)NCc3ccc(C(F)(F)F)cc3)c(C)nc2c1[2H] [ND-012101]; 19200

# ---- query compound ----
// concentration at 0.5 h value for Cc1ccc2nc(C)c(C(=O)NCc3ccc(C(F)(F)F)cc3)n2c1 [ND-011176] : 6730

----------
We begin with a simple list: items and their reported half-life.
assay: Single dose pharmacokinetic study after oral administration, with and without ABT pre-dosing; type: in vivo, female Balb/c mice; details: mouse, in vivo; female Balb/c mice, single oral dose 200 mg/kg, no ABT
Your reply should be a number followed by the unit it is expressed in.

[2H]c1c(C([2H])([2H])[2H])c([2H])n2c(C(=O)NCc3ccc(C(F)(F)F)cc3)c(C)nc2c1[2H] [ND-012101]; 0.79 h

Continue with the compound presented below.
# half-life of Cc1ccc2nc(C)c(C(=O)NCc3ccc(C(F)(F)F)cc3)n2c1 [ND-011176] = 1.7 h
